These entries and their values trace back to patent US20240182536A1.

Target: T1, IL-18 receptor (IL-18Rα and IL-18Rβ) (UniProt Q13478 19-541; O95256 20-599, limits assumed)
T1 sequence (looked up) 1: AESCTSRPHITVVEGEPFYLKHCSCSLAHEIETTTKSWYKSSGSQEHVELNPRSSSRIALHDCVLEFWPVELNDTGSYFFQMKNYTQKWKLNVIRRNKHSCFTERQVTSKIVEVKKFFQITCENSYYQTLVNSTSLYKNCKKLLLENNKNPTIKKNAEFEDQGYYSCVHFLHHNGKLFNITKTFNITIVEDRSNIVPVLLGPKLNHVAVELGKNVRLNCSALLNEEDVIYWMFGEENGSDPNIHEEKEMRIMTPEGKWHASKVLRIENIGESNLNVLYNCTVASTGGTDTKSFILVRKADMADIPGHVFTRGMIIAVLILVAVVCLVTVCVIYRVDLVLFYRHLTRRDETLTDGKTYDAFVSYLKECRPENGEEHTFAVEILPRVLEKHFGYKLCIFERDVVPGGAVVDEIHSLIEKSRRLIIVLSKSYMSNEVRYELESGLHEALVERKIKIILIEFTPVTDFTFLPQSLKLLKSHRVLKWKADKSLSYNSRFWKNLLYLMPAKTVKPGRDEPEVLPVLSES
T1 sequence (looked up) 2: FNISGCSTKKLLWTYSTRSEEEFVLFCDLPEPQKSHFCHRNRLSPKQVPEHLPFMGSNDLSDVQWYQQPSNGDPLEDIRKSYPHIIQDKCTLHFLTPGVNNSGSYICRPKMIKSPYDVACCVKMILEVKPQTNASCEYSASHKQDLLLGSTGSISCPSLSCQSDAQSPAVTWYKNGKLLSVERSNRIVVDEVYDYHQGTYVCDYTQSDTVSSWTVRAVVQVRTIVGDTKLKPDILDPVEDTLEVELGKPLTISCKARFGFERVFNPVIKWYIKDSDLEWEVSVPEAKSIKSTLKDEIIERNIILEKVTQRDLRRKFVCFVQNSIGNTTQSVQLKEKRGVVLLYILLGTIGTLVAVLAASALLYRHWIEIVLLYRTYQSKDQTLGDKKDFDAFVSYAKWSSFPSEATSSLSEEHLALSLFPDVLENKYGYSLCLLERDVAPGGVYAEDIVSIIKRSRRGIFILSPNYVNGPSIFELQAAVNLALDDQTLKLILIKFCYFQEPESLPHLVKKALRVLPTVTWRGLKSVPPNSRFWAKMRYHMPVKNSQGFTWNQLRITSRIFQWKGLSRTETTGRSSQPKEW
Experiment: cell-based or functional assay
# maps each entry to its EC50 (pM), PBMC IFN gamma assay, average

>>> result("hIL18 (G3V, E6K, K53S, M60K) - KiH (Fc fusion) YFVKLKSKLSVIRNLNDQVLFIDQGNRPLFEDMTDSDMRDNAPRTIFIISMYSDSQPRGKAVTISVKSEKISTLSSENKIISFKEMNPPDNIKDTKSDIIFFQRSVPGHDNKMQFESSSYEGYFLASEKERDLFKLILKKEDELGDRSIMFTVQNED")
"16.8 pM"

Param item = hIL18 (G3V, K53S, M60K) - KiH (Fc fusion) YFVKLESKLSVIRNLNDQVLFIDQGNRPLFEDMTDSDMRDNAPRTIFIISMYSDSQPRGKAVTISVKSEKISTLSSENKIISFKEMNPPDNIKDTKSDIIFFQRSVPGHDNKMQFESSSYEGYFLASEKERDLFKLILKKEDELGDRSIMFTVQNED ; retrieve measured EC50 (pM), PBMC IFN gamma assay, average. 576 pM

// next record hIL18 (G3T, E6K, K53S, M60K) - KiH (Fc fusion) YFTKLKSKLSVIRNLNDQVLFIDQGNRPLFEDMTDSDMRDNAPRTIFIISMYSDSQPRGKAVTISVKSEKISTLSSENKIISFKEMNPPDNIKDTKSDIIFFQRSVPGHDNKMQFESSSYEGYFLASEKERDLFKLILKKEDELGDRSIMFTVQNED 84.4 pM
